ASSAY_TARGET: 5'(3')-deoxyribonucleotidase, mitochondrial (Homo sapiens)
Sequence (Q9NPB1 whole entry): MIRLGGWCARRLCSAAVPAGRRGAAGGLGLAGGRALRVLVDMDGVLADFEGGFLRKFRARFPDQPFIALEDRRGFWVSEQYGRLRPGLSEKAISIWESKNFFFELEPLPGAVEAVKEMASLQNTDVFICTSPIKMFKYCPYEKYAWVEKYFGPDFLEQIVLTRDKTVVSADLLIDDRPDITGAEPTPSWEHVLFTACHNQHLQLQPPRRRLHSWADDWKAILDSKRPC

{"ITEM_SMILES": "O=c1[nH]c(=O)n([C@H]2C[C@H]3O[C@](c4ccccc4)(P(=O)(O)O)OC[C@H]3O2)cc1/C=C/P(=O)(O)O", "Ki": "128 nM"}
